Origin of the recorded values: patent US20250115577A1

Tested on: MOLT-4 cells
protocol.notes: Cell viability assay (CellTiter-Glo), MOLT-4
Format: cell-based
assay.context: Homo sapiens, 72 h, 3 days of incubation
Overview of reported CC50 across a group of compounds:
experimental.endpoint: CC50

- structure.string: "COc1ccccc1CN(C(=O)c1cc(-c2cc(Cl)ccc2C(=O)N2Cc3ccccc3C[C@H]2CN2CCOCC2)n(C)c1C)c1ccc2[nH]ncc2c1"
  data.value: "> 10 µM"
- structure.string: "COc1cccc(CN(C(=O)c2cc(-c3ccc(OC(F)F)cc3C(=O)N3Cc4ccccc4C[C@H]3CN3CCOCC3)n(C)c2C)c2ccc(O)cc2)c1C"
  data.value: "≤ 5 µM"
- structure.string: "COc1cc(-c2cc(C(=O)N(Cc3cccc(OC)c3C)c3ccc(O)cc3)c(C)n2C)c(C(=O)N2Cc3ccccc3C[C@H]2CN2CCOCC2)cc1C#N"
  data.value: "≤ 5 µM"
- structure.string: "COc1ccccc1CN(C(=O)c1cc(-c2cc(C#N)ccc2C(=O)N2Cc3ccccc3C[C@H]2CN2CCOCC2)n(C)c1C)c1ccc(O)cc1"
  data.value: "≤ 5 µM"
- structure.string: "COc1cccc(CN(C(=O)c2cc(-c3cc(C(N)=O)ccc3C(=O)N3Cc4ccccc4C[C@H]3CN3CCOCC3)n(C)c2C)c2ccc(O)cc2)c1C"
  data.value: "> 10 µM"
- structure.string: "COc1cc(-c2cc(C(=O)N(Cc3ccccc3OC)c3ccc(Cl)cc3)c(C)n2C)c(C(=O)N2Cc3ccccc3C[C@H]2CN2CCOCC2)cc1C#N"
  data.value: "≤ 5 µM"
- structure.string: "COc1cc(C(=O)N2Cc3ccccc3C[C@H]2CN2CCOCC2)c(-c2cc(C(=O)N(Cc3cccc(OC)c3C)c3ccc(O)cc3)c(C)n2C)cc1F"
  data.value: "≤ 5 µM"
- structure.string: "COc1cccc(CN(C(=O)c2cc(-c3cc(Cl)c(OC(F)F)cc3C(=O)N3Cc4ccccc4C[C@H]3CN3CCOCC3)n(C)c2C)c2ccc(Cl)cc2)c1C"
  data.value: "≤ 5 µM"
- structure.string: "COc1ccccc1CN(C(=O)c1cc(-c2cc(OC)c(C(N)=O)cc2C(=O)N2Cc3ccccc3C[C@H]2CN2CCOCC2)n(C)c1C)c1ccc(Cl)cc1"
  data.value: "≤ 5 µM"
- structure.string: "COc1cccc(CN(C(=O)c2cc(-c3cc(Cl)ccc3C(=O)N3Cc4ccccc4C[C@H]3CN3CCOCC3)n(C)c2C)c2ccc(O)cc2)c1C"
  data.value: "5 to 10 µM"
- structure.string: "COc1cccc(CN(C(=O)c2cc(-c3cc(F)c(OC(F)F)cc3C(=O)N3Cc4ccccc4C[C@H]3CN3CCOCC3)n(C)c2C)c2ccc(O)cc2)c1C"
  data.value: "≤ 5 µM"
- structure.string: "COc1cccc(CN(C(=O)c2cc(-c3cc(S(C)(=O)=O)ccc3C(=O)N3Cc4ccccc4C[C@H]3CN3CCOCC3)n(C)c2C)c2ccc(O)cc2)c1C"
  data.value: "5 to 10 µM"

* * *

Overview of reported CC50 across a group of compounds:
Test system: MOLT-4 cells
protocol.notes: Cell viability assay (CellTiter-Glo), MOLT-4
Assay type: cell-based
assay.context: Homo sapiens, 72 h, 3 days of incubation

- structure.string: "COc1cccc(CN(C(=O)c2cc(-c3cc(Cl)ccc3C(=O)N3Cc4ccccc4C[C@H]3CN3CCOCC3)n(C)c2C)c2ccc3[nH]ncc3c2)c1C"
  CC50: "≤ 5 µM"
- structure.string: "COc1cccc(CN(C(=O)c2cc(-c3ccc(OC(F)F)cc3C(=O)N3Cc4ccccc4C[C@H]3CN3CCOCC3)n(C)c2C)c2ccc(Cl)cc2)c1C"
  CC50: "≤ 5 µM"
- structure.string: "Cc1c(C(=O)N(Cc2ccccc2C#N)c2ccc(O)cc2)cc(-c2cc(Cl)ccc2C(=O)N2Cc3ccccc3C[C@H]2CN2CCOCC2)n1C"
  CC50: "5 to 10 µM"
- structure.string: "COc1ccccc1CN(C(=O)c1cc(-c2cc(F)ccc2C(=O)N2Cc3ccccc3C[C@H]2CN2CCOCC2)n(C)c1C)c1ccc(O)cc1"
  CC50: "≤ 5 µM"
- structure.string: "COc1cccc(CN(C(=O)c2cc(-c3cc(C(F)F)c(Cl)cc3C(=O)N3Cc4ccccc4C[C@H]3CN3CCOCC3)n(C)c2C)c2ccc(C#N)cc2)c1C"
  CC50: "> 10 µM"
- structure.string: "COc1cccc(CN(C(=O)c2cc(-c3cc(Cl)ccc3C(=O)N3Cc4ccccc4C[C@H]3CN3CCOCC3)n3c2CCCC3)c2ccc(O)cc2)c1C"
  CC50: "≤ 5 µM"
- structure.string: "COc1cccc(CN(C(=O)c2cc(-c3cc([N+](=O)[O-])ccc3C(=O)N3Cc4ccccc4C[C@H]3CN3CCOCC3)n(C)c2C)c2ccc(O)cc2)c1C"
  CC50: "≤ 5 µM"
- structure.string: "COc1cccc(CN(C(=O)c2cc(-c3cc(Cl)c(F)cc3C(=O)N3Cc4ccccc4C[C@H]3CN3CCOCC3)n(C)c2C)c2ccc(O)cc2)c1C"
  CC50: "≤ 5 µM"
- structure.string: "COc1cccc(CN(C(=O)c2cc(-c3cc(Cl)c(OC(F)F)cc3C(=O)N3Cc4ccccc4C[C@H]3CN3CCOCC3)n(C)c2C)c2ccc(O)cc2)c1C"
  CC50: "5 to 10 µM"
- structure.string: "COc1cccc(CN(C(=O)c2cc(-c3cc(C(F)F)c(Cl)cc3C(=O)N3Cc4ccccc4C[C@H]3CN3CCOCC3)n(C)c2C)c2ccc(Cl)cc2)c1C"
  CC50: "≤ 5 µM"
- structure.string: "COc1cccc(CN(C(=O)c2cc(-c3cc(Cl)c(F)cc3C(=O)N3Cc4ccccc4C[C@H]3CN3CCOCC3)n(C)c2C)c2ccc(C#N)cc2)c1C"
  CC50: "> 10 µM"
- structure.string: "COc1cccc(CN(C(=O)c2cc(-c3cc(C(F)F)c(Cl)cc3C(=O)N3Cc4ccccc4C[C@H]3CN3CCOCC3)n(C)c2C)c2ccc(O)cc2)c1C"
  CC50: "≤ 5 µM"
- structure.string: "COc1cccc(CN(C(=O)c2cc(-c3cc([N+](=O)[O-])ccc3C(=O)N3Cc4ccccc4C[C@H]3CN3CCOCC3)n(C)c2C)c2ccc3[nH]ncc3c2)c1C"
  CC50: "≤ 5 µM"
- structure.string: "Cc1c(C(=O)N(Cc2ccccc2C#N)c2ccc(O)cc2)cc(-c2cc(F)c(F)cc2C(=O)N2Cc3ccccc3C[C@H]2CN2CCOCC2)n1C"
  CC50: "5 to 10 µM"
- structure.string: "Cc1c(C(=O)N(Cc2ccccc2C#N)c2ccc3[nH]ncc3c2)cc(-c2cc(Cl)ccc2C(=O)N2Cc3ccccc3C[C@H]2CN2CCOCC2)n1C"
  CC50: "> 10 µM"
- structure.string: "COc1cccc(CN(C(=O)c2cc(-c3cc(F)ccc3C(=O)N3Cc4ccccc4C[C@H]3CN3CCOCC3)n(C)c2C)c2ccc(O)cc2)c1C"
  CC50: "≤ 5 µM"
- structure.string: "COc1cccc(CN(C(=O)c2cc(-c3cc(C#N)ccc3C(=O)N3Cc4ccccc4C[C@H]3CN3CCOCC3)n(C)c2C)c2ccc(O)cc2)c1C"
  CC50: "≤ 5 µM"
